- assayed target: Ataxin-2 (Homo sapiens)
- assay summary: qHTS for Inhibitors of ATXN expression.
- Type: functional
The campaign covered roughly 400,000 compounds. About 2,100 (0.53%) were called active. Inconclusive results (about 14%) are left out. The rule behind the calls is not given here. This excerpt belongs to a sample that is enriched for actives.
Your reply should match one of these outcome classes. active, inactive

Past entries and their recorded results:
molecule	category
O=C(NC(=S)Nc1ccc(N2CCCC2)cc1)c1ccc(F)cc1	inactive
O=C(NCc1csc(-c2cccs2)n1)c1cccc(Cl)c1	inactive
CCOc1ccc2nc(N3C(=O)/C(=C/c4ccc(Cl)cc4)NC3=S)sc2c1	inactive
O=c1[nH]c(=O)c2nc(-c3ccc(Cl)cc3)cnc2[nH]1	inactive
O=C(NNC(=O)c1csc(-c2cccs2)n1)c1ccc(Cl)cc1	active
N#Cc1nccc2ccc(OCc3ccc(Br)cc3)cc12	inactive

Q: Field: outcome | Entry: [O-][n+]1c(-c2ccccc2)c(O)nc2ccccc21
Ans: inactive

Q: Field: outcome | Entry: Cn1cc(/C=C2\SC(=O)N(c3ccccc3)C2=O)c2ccccc21
Ans: inactive

* * *

- assayed target: Ataxin-2 (Homo sapiens) (UniProt Q99700)
- Sequence (Q99700 whole entry): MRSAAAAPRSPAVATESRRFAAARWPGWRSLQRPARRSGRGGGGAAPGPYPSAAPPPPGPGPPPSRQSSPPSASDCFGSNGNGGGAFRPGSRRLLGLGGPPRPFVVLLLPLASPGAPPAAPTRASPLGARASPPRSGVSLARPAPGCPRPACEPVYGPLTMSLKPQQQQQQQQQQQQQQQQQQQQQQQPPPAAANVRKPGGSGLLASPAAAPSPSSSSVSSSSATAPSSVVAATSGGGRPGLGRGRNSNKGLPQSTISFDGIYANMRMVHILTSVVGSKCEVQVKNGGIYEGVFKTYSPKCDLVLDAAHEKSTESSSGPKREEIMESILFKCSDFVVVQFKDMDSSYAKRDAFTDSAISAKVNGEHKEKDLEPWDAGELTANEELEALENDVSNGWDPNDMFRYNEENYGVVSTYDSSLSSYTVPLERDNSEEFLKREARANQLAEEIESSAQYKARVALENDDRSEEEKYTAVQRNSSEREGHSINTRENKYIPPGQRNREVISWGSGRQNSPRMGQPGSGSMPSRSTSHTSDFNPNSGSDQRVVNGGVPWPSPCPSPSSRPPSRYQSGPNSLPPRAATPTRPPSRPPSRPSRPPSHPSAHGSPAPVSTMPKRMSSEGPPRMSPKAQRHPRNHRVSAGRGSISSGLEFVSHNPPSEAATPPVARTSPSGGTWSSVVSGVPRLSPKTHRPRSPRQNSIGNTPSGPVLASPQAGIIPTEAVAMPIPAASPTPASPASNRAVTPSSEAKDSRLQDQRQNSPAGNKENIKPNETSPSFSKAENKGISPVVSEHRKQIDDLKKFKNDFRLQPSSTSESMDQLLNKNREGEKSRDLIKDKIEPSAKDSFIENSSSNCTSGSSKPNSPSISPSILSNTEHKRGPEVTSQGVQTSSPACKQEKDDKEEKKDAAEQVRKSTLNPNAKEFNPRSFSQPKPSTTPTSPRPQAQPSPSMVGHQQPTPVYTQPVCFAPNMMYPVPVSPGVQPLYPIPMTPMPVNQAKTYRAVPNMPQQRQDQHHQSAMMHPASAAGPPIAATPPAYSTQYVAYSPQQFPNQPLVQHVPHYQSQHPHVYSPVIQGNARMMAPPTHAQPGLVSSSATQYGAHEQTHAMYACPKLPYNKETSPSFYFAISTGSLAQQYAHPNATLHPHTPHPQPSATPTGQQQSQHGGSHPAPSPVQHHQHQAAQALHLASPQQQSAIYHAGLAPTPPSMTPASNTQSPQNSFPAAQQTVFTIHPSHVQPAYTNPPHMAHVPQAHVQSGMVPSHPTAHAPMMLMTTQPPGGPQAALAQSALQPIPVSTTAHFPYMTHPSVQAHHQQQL
- assay summary: qHTS for Inhibitors of ATXN expression.
- Format: functional
The campaign covered roughly 400,000 compounds. About 2,100 (0.53%) were called active. Inconclusive results (about 14%) are left out. No rule for the calls is given here. The list comes from a sample in which actives are over-represented; it also holds close analogues and randomly drawn compounds.
Your reply should match one of these outcome classes. active, inactive

Past entries and their recorded results:
compound	category
O=C(Nc1cccnc1)Nc1cccc(F)c1	inactive
CN(C)C=O.CN(C)c1ccc(/C=C/c2nc3ccccc3c(=O)n2-c2ccc(C(=O)O)cc2)cc1	inactive
COc1ccc(/N=C/C2=C(O)c3c(sc(C)c3C)N(C)S2(=O)=O)cc1	inactive

Q: Field: outcome | Entry: O=c1nc2c(O)cccn2c2c1c(O)nc1ccccc12
Ans: inactive

Q: Field: outcome | Entry: CC(C)(C)C(CN1CCCC1)OC(=O)c1ccccc1 (centres undefined)
Ans: inactive

* * *

- assayed target: Ataxin-2 (Homo sapiens) (UniProt Q99700)
- assay summary: qHTS for Inhibitors of ATXN expression.
- Assay type: functional
The campaign covered roughly 400,000 compounds. About 2,100 (0.53%) were called active. Inconclusive results (about 14%) are left out. The list comes from a sample in which actives are over-represented; it also holds close analogues and randomly drawn compounds.
Consider the following compounds; for each one, report its Potency.

compound	Potency
COc1ccc2noc3c2c1C(=O)c1ccccc1-3	39.8 µM (active)

Q: Consider the compound shown here: OC(c1cccc(Cl)c1)c1nc(-c2ccc(C(F)(F)F)cc2)c[nH]1 (stereo not drawn) What is its recorded Potency?
Ans: 39.8 µM (active)

* * *

- assayed target: Ataxin-2 (Homo sapiens) (UniProt Q99700)
- assay summary: qHTS for Inhibitors of ATXN expression.
- Format: functional
In all, about 400,000 compounds went through this assay and about 2,100 (0.53%) were called active. Not shown: some 14% with an inconclusive outcome. The rule behind the calls is not given here. The entries come from a sample that favours actives as a whole.
Your reply should match one of these outcome classes. active, inactive

Past entries and their recorded results:
compound	assayed target	category
CC(NC(=O)CNC(=O)C(Cc1ccccc1)NC(=O)OCc1ccccc1)C(N)=O (stereo not given)	Ataxin-2 (Homo sapiens) (UniProt Q99700)	inactive
CCOc1ccc(-c2ccc(/C=C3/C(=N)N4C=CSC4=NC3=O)o2)c([N+](=O)[O-])c1	Ataxin-2 (Homo sapiens) (UniProt Q99700)	active
CN(C(=O)COC(=O)c1cc2ccccc2cc1O)c1ccccc1	Ataxin-2 (Homo sapiens) (UniProt Q99700)	inactive
COC(=O)[C@H](Cc1ccccc1)NC(=O)NCc1ccccc1	Ataxin-2 (Homo sapiens) (UniProt Q99700)	inactive
OCC1(CCc2ccccc2)CCN(Cc2cccn2-c2cccnc2)CC1	Ataxin-2 (Homo sapiens) (UniProt Q99700)	inactive

Q: Field: outcome | Entry: Cc1cc(C(=O)NCCN2CCOCC2)c2ccccc2n1
Ans: inactive

Q: Field: outcome | Entry: CCCCc1ccc(-c2csc(/C(C#N)=C\c3ccco3)n2)cc1
Ans: inactive

Q: Field: outcome | Entry: CC(C)CC(NC(=O)OCc1ccccc1)C(=O)NC(Cc1ccccc1)C(=O)CCl (stereo not given)
Ans: active

Q: Field: outcome | Entry: O=C(Nc1ccc2c(c1)OCCO2)c1cccnc1Oc1ccc(Cl)cc1
Ans: inactive

Q: Field: outcome | Entry: Cc1ccc(Cc2c(-c3ccco3)nc3ccc(Cl)cn23)cc1
Ans: active
